# Target entity: T1, Ac-VQIINK-NH2
# T1 peptide: Ac-VQIINK-NH2
# Assay protocol: cell-based or functional assay
Square brackets hold non-standard residues; d marks the D form. Ends that are not written are not given here. NMeR = CN[C@@H](CCCNC(=N)N)C(=O)O
Exercise: for every item that follows, state its recorded IC50 (µM), VQIINK Inhibition (ThT).
Quick reminder: number only, in µM, skip the unit.

Determine from records and report IC50 (µM), VQIINK Inhibition (ThT) for LRIWIRYL 1.74

Retrieve IC50 (µM), VQIINK Inhibition (ThT) measured for RIRIWIW and print it. 2.38

Output measured IC50 (µM), VQIINK Inhibition (ThT) for this item: WKLKLRWW 0.82

// fetch IC50 (µM), VQIINK Inhibition (ThT) given entry IRLWLW 1.27

For WRI[NMeR]IRW [WRI(NMe)RIRW] , write its IC50 (µM), VQIINK Inhibition (ThT). 3.84

Identify measured IC50 (µM), VQIINK Inhibition (ThT) associated with WRLWFWWR 1.19

Supply IC50 (µM), VQIINK Inhibition (ThT) value. Item: KWWIRIRYW 1.8

Please list IC50 (µM), VQIINK Inhibition (ThT) recorded for the binder IRLWVW 1.63
